Hello, the source for this data is patent US20250051449A1, in case you need it.

EXPERIMENTAL SYSTEM: T1, human CD112R expressed on Jurkat cells (human, UniProt Q6DKI7 1-326)
T1 construct: whole, on cells; Used for both Jurkat-CD112R OE cells and wild type Jurkat cells; which cells is said under assay; also called PVRIG; Jurkat-CD112R OE
T1 sequence (looked up): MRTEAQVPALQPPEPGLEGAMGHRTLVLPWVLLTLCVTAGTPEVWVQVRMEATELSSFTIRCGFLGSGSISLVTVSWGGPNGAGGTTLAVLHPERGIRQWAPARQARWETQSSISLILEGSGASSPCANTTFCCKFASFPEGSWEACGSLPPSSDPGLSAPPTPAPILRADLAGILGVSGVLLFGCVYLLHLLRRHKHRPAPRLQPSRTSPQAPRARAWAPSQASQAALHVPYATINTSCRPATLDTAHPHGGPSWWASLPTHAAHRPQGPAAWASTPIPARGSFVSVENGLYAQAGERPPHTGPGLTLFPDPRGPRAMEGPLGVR
ASSAY REMARKS: flow cytometry, wild type Jurkat cells, 0.63 ug/mL antibody
Experimental: The ability of anti-CD112R antibodies to bind to CD112R expressed on cells was evaluated. […] Cellular data was acquired using a LSRFortessa X-20 (BD Biosciences) and analyzed with FlowJo software (Tree Star).
READOUT TYPE: gMFI (fold increase over isotype)

Antibody 44 (antibody, V domains shown, Purified as IgG; compared with an IgG1 isotype control and detected with anti-human IgG Fc; also called antibody clone number 44; clone 44) VH: QVQLVQSGAEVKKPGSSVKVSCKASGGTFDNYYISWVRQAPGQGLEWMGGIFPIFGTANYAQKFQGRVTITADESTSTAYMELSSLRSEDTAVYYCAREVGHYSGSPYYMDVWGKGTTVTVSS VL: DIQMTQSPSTLSASVGDRVTITCRASQSINSWLAWYQQKPGKAPKLLISDASSLESGVPSRFSGSGSGTEFTLTISSLQPDDFATYYCQQVGPYLTFGGGTKVEIK: 4.8 fold increase over isotype

[in] Recall and state the measured gMFI (fold increase over isotype) for Antibody 38 (antibody, V domains shown, Purified as IgG; compared with an IgG1 isotype control and detected with anti-human IgG Fc; also called antibody clone number 38; clone 38) VH: EVQLLESGGGLVQPGGSLRLSCAASGFTFSGHLMSWVRQAPGKGLEWVSAISGSAGETYYADSVKGRFTISRDNSKNTLYLQMNSLRAEDTAVYYCARDAYYDDWSGWADWYFDLWGRGTLVTVSS VL: EIVLTQSPATLSLSPGERATLSCRASQSVSRYLAWYQQKPGQAPRLLIYDASNRATGIPARFSGSGSGTDFTLTISSLEPEDFAVYYCQQVSLLPPTFGGGTKVEIK .
[out] 3.8 fold increase over isotype
